# TGT: PTP MEG2 (Homo sapiens)
# Construct: made in house; host or cells: E. coli BL-21 (pGEX 6P-1)
# Sequence (P43378 262-593 limits assumed): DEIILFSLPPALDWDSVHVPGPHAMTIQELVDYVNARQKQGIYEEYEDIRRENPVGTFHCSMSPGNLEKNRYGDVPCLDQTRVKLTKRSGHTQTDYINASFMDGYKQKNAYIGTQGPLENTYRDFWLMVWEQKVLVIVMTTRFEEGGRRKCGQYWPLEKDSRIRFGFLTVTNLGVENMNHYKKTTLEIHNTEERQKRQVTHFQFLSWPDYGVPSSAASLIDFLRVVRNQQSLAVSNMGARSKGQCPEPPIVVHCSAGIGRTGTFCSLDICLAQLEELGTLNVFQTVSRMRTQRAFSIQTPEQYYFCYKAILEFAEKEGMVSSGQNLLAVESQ
# MEASUREMENT NOTES: PTP IC50 assay, pNPP or FDP as substrate
# Type: biochemical
# ASSAY CONTEXT: pNPP or FDP as substrate, 25° C.; read-out: PTP IC50 MEG2
QUANTITY NAME: IC50 (µM)
Answers are plain numbers, in µM.

>>> val("O=C(Cc1ccc(CC(=O)Nc2cccc(S(=O)(=O)C(F)(F)F)c2)cc1)Nc1cccc(S(=O)(=O)C(F)(F)F)c1")
27.5

Pending compound:
Can you share its IC50? I mean this compound: `O=S(=O)(c1ccc(COc2ccc(S(=O)(=O)C(F)(F)F)cc2)cc1)C(F)(F)F` 62.1

---

# TGT: PTP SIGMA (Homo sapiens, UniProt Q13332)
# Construct: made in house; host or cells: E. coli BL-21 (pGEX 6P-1)
# Sequence (Q13332 1320-1660 limits assumed): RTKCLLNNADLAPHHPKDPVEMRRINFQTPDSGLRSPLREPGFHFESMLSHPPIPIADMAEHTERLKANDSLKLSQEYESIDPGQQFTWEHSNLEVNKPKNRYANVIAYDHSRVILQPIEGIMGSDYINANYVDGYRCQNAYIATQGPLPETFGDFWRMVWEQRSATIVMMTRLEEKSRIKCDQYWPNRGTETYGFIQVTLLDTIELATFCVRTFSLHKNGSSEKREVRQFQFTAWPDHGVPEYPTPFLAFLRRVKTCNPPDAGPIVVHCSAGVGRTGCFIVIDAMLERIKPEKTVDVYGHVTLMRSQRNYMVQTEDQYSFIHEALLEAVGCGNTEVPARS
# MEASUREMENT NOTES: PTP IC50 assay, pNPP or FDP as substrate
# Type: biochemical
# ASSAY CONTEXT: pNPP or FDP as substrate, 25° C.; read-out: PTP IC50 Sigma
QUANTITY NAME: IC50

>>> val("COC(=O)c1cc(Oc2ccc(S(=O)(=O)C(F)(F)F)cc2[N+](=O)[O-])cc(Oc2ccc(S(=O)(=O)C(F)(F)F)cc2[N+](=O)[O-])c1")
"24.1 µM"

# batch size: 3; output IC50 per entry
1. O=C(NCc1ccc(S(=O)(=O)C(F)(F)F)cc1)c1ccccc1
2. O=C(O)Cc1ccccc1CC(=O)Nc1cccc(S(=O)(=O)C(F)(F)F)c1
3. COC(=O)Cc1cc(Oc2ccc(S(=O)(=O)C(F)(F)F)cc2[N+](=O)[O-])cc(Oc2ccc(S(=O)(=O)C(F)(F)F)cc2[N+](=O)[O-])c1

> 100 µM
> 100 µM
33.8 µM

---

# TGT: PTP SHP2 (Homo sapiens, UniProt Q06124)
# Construct: The catalytic domain was amplified using the following oligonucleotides; made in house; host or cells: Sf-9 insect cells (pFastBac-G2T)
# Sequence (Q06124 247-517 limits assumed): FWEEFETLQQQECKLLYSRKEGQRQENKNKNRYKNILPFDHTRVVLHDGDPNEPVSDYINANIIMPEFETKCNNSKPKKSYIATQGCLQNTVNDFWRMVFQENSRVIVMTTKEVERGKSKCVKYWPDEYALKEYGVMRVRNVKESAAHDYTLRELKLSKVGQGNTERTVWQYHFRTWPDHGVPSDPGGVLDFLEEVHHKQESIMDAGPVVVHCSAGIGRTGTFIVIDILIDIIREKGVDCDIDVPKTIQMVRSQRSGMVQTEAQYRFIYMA
# MEASUREMENT NOTES: PTP IC50 assay, pNPP or FDP as substrate
# Assay type: biochemical
# ASSAY CONTEXT: pNPP or FDP as substrate, 25° C.; read-out: PTP IC50 SHP2
QUANTITY NAME: IC50

Here are 4 molecules together with their reported answers.
>>> val("CN(C)CC(COc1ccc(S(=O)(=O)C(F)(F)F)cc1[N+](=O)[O-])Oc1ccc(S(=O)(=O)C(F)(F)F)cc1[N+](=O)[O-] (stereo not shown)")
"> 100 µM"
>>> val("COC(=O)c1ccc(OCCOc2ccc(S(=O)(=O)C(F)(F)F)cc2[N+](=O)[O-])cc1")
"> 100 µM"
>>> val("COC(=O)c1cc(Oc2ccc(S(=O)(=O)C(F)(F)F)cc2[N+](=O)[O-])n(-c2cc(C(F)(F)F)cc(C(F)(F)F)c2)n1")
"> 100 µM"
>>> val("O=S(=O)(c1ccc(CCc2ccc(S(=O)(=O)C(F)(F)F)cc2)cc1)C(F)(F)F")
"> 100 µM"

# batch size: 8; output IC50 per entry
1. COC(=O)Cc1cc(Oc2ccc(S(=O)(=O)C(F)(F)F)cc2[N+](=O)[O-])cc(Oc2ccc(S(=O)(=O)C(F)(F)F)cc2[N+](=O)[O-])c1
2. O=C(O)Cc1ccccc1CC(=O)Nc1cccc(S(=O)(=O)C(F)(F)F)c1
3. O=C(NCc1ccc(S(=O)(=O)C(F)(F)F)cc1)c1ccccc1
4. CCOC(=O)c1cc(Oc2ccc(S(=O)(=O)C(F)(F)F)cc2[N+](=O)[O-])c(C(=O)OCC)cc1O
5. O=S(=O)(Nc1ccc(Oc2ccc(NS(=O)(=O)C(F)(F)F)cc2)cc1)C(F)(F)F
6. CCOC(=O)COc1ccc(S(=O)(=O)c2ccc(Oc3ccc(S(=O)(=O)C(F)(F)F)cc3)cc2)cc1
7. COC(=O)c1c(Oc2ccc(S(=O)(=O)C(F)(F)F)cc2[N+](=O)[O-])cc(C)cc1Oc1ccc(S(=O)(=O)C(F)(F)F)cc1[N+](=O)[O-]
8. COC(=O)c1cc(Oc2ccc(S(=O)(=O)C(F)(F)F)cc2[N+](=O)[O-])cc(Oc2ccc(S(=O)(=O)C(F)(F)F)cc2[N+](=O)[O-])c1

["> 100 µM", "> 100 µM", "> 100 µM", "> 100 µM", "> 100 µM", "> 100 µM", "> 100 µM", "> 100 µM"]

Value wanted: IC50 (PTP SHP2 (Homo sapiens, UniProt Q06124)) of entry `CCOC(=O)COc1ccc(S(=O)(=O)c2ccc(Oc3ccc(S(=O)(=O)C(F)(F)F)cc3[N+](=O)[O-])cc2)cc1` > 100 µM
